This section presents molecules with their documented IC50 values.
Tested on: OE33: human esophageal cancer cells
experiment.notes: Tumor cell growth inhibition (CCK-8, 72 h), OE33
Assay type: cell-based
recorded.conditions: Homo sapiens, 72 h incubation, read-out: IC50 for inhibiting the growth of tumor cells, OE33

{"molecule": "CC[C@@]1(O)C(=O)OCc2c1cc1n(c2=O)Cc2c-1nc1cc(F)c(C)c3c1c2[C@@H](NC(=O)C1(ONC)CCC1)CC3 [Compound D2]", "IC50 (nM)": 1.95}
{"molecule": "CC[C@@]1(O)C(=O)OCc2c1cc1n(c2=O)Cc2c-1nc1cc(F)c(C)c3c1c2[C@@H](NC(=O)[C@H](C)ONC)CC3 [Compound D3]", "IC50 (nM)": 3.8}
{"molecule": "CC[C@@]1(O)C(=O)OCc2c1cc1n(c2=O)Cc2c-1nc1cc(F)c(C)c3c1c2[C@@H](NC(=O)C1CNOC1)CC3 (some centres unmarked) [Compound D5, N-(isoxazolidine-4′-carbonyl)exatecan]", "IC50 (nM)": 22.5}
{"molecule": "[2H]C([2H])([2H])NOCC(=O)N[C@H]1CCc2c(C)c(F)cc3nc4c(c1c23)Cn1c-4cc2c(c1=O)COC(=O)[C@]2(O)CC [Compound D1]", "IC50 (nM)": 4.32}
{"molecule": "[2H]C([2H])([2H])NOC([2H])([2H])C(=O)N[C@H]1CCc2c(C)c(F)cc3nc4c(c1c23)Cn1c-4cc2c(c1=O)COC(=O)[C@]2(O)CC [Compound D4]", "IC50 (nM)": 5.56}

---

Test system: NCI-H1975: human lung cancer cells
experiment.notes: Tumor cell growth inhibition (CCK-8, 72 h), NCI-H1975
Type: cell-based
recorded.conditions: 72 h incubation, read-out: IC50 for inhibiting the growth of tumor cells, NCI-H1975
Procedure: • OE33: human esophageal cancer cells; • SK-BR-3: human breast cancer cells; • NCI-N87: human gastric cancer cells; • NCI-H1975: human lung cancer cells; • MDA-MB-231: human breast cancer cells; • NCI-H226: human lung squamous cell carcinoma cells; • TE12: human esophageal cancer cells. Tumor cells OE33, SK-BR-3, NCI-N87, NCI-H1975, MDA-MB-231, NCI-H226, and TE12 were cultured separately in RPMI1640 (Cellmax) supplemented with 10% fetal bovine serum (Cellmax). […]
pIC50: −log10 of the molar value.
quantity.measured: pIC50

{"compound": "CC[C@@]1(O)C(=O)OCc2c1cc1n(c2=O)Cc2c-1nc1cc(F)c(C)c3c1c2[C@@H](NC(=O)CO)CC3 [Dxd, reference compound]", "experimental.system": "NCI-H1975: human lung cancer cells", "quantitative.readout": 7.59}

---

Test system: NCI-H1975: human lung cancer cells
experiment.notes: Tumor cell growth inhibition (CCK-8, 72 h), NCI-H1975
Type: cell-based
recorded.conditions: Homo sapiens, 72 h incubation, read-out: IC50 for inhibiting the growth of tumor cells, NCI-H1975
Protocol: • OE33: human esophageal cancer cells; • SK-BR-3: human breast cancer cells; • NCI-N87: human gastric cancer cells; • NCI-H1975: human lung cancer cells; • MDA-MB-231: human breast cancer cells; • NCI-H226: human lung squamous cell carcinoma cells; • TE12: human esophageal cancer cells. Tumor cells OE33, SK-BR-3, NCI-N87, NCI-H1975, MDA-MB-231, NCI-H226, and TE12 were cultured separately in RPMI1640 (Cellmax) supplemented with 10% fetal bovine serum (Cellmax). […]
pIC50: −log10 of the molar value.
quantity.measured: pIC50

{"compound": "CC[C@@]1(O)C(=O)OCc2c1cc1n(c2=O)Cc2c-1nc1cc(F)c(C)c3c1c2[C@@H](NC(=O)C1(ONC)CCC1)CC3 [Compound D2]", "experimental.system": "NCI-H1975: human lung cancer cells", "quantity.measured": "pIC50", "quantitative.readout": 7.57}
{"compound": "[2H]C([2H])([2H])NOC([2H])([2H])C(=O)N[C@H]1CCc2c(C)c(F)cc3nc4c(c1c23)Cn1c-4cc2c(c1=O)COC(=O)[C@]2(O)CC", "experimental.system": "NCI-H1975: human lung cancer cells", "quantity.measured": "pIC50", "quantitative.readout": 7.19}
{"compound": "CC[C@@]1(O)C(=O)OCc2c1cc1n(c2=O)Cc2c-1nc1cc(F)c(C)c3c1c2[C@@H](NC(=O)[C@H](C)ONC)CC3", "experimental.system": "NCI-H1975: human lung cancer cells", "quantity.measured": "pIC50", "quantitative.readout": 7.43}
{"compound": "CC[C@@]1(O)C(=O)OCc2c1cc1n(c2=O)Cc2c-1nc1cc(F)c(C)c3c1c2[C@@H](NC(=O)C1CNOC1)CC3 (some centres unmarked)", "experimental.system": "NCI-H1975: human lung cancer cells", "quantity.measured": "pIC50", "quantitative.readout": 7.01}
{"compound": "[2H]C([2H])([2H])NOCC(=O)N[C@H]1CCc2c(C)c(F)cc3nc4c(c1c23)Cn1c-4cc2c(c1=O)COC(=O)[C@]2(O)CC [Compound D1]", "experimental.system": "NCI-H1975: human lung cancer cells", "quantity.measured": "pIC50", "quantitative.readout": 7.19}
